Reported IC50 values are given for each entry in this list.
# System name: Acetylcholinesterase (Bos taurus, UniProt P23795)
# Sequence (P23795 whole entry): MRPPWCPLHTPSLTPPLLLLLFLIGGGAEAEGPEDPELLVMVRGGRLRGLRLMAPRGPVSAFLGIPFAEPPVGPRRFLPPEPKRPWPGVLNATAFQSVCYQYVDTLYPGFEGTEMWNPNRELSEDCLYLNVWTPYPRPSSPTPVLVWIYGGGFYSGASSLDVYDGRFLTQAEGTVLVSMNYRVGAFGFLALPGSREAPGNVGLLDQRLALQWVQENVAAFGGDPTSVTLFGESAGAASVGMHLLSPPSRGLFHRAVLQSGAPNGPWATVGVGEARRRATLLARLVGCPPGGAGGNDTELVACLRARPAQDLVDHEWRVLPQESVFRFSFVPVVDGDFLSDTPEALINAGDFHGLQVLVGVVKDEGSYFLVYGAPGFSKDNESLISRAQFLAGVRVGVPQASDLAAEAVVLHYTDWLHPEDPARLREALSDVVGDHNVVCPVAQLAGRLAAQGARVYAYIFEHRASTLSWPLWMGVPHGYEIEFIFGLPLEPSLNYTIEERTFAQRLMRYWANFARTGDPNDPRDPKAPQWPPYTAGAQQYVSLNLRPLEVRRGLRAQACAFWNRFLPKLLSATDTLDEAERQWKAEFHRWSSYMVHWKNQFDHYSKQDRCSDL
Your answer is read as nM, so omit the unit and give the number.

Consider the reported IC50 for these compounds:
INSERT INTO results (structure_notation, quantity_kind, unit_label, reported_measurement) VALUES
  ('O=C(NCCCCCCCCCCNc1c2c(nc3cc(Cl)cc(Cl)c13)CCCC2)c1cc(=O)c2c(O)cc(O)cc2o1', 'IC50', 'nM', 75),
  ('O=C(NCCCCCCCCNc1c2c(nc3ccccc13)CCCC2)c1cc(=O)c2ccccc2o1', 'IC50', 'nM', 150),
  ('O=C(NCCCCCCCCCCNc1c2c(nc3cc(Cl)cc(Cl)c13)CCCC2)c1cc(=O)c2ccccc2o1', 'IC50', 'nM', 1000);

// next item, IC50 requested
Indicate the recorded IC50 value for this compound: Cl.O=C(NCCCCCCCCCCNc1c2c(nc3cc(Cl)ccc13)CCCC2)c1cc(=O)c2c(O)cc(O)cc2o1
10

###

# System name: Acetylcholinesterase (Bos taurus, UniProt P23795)
# Sequence (P23795 whole entry): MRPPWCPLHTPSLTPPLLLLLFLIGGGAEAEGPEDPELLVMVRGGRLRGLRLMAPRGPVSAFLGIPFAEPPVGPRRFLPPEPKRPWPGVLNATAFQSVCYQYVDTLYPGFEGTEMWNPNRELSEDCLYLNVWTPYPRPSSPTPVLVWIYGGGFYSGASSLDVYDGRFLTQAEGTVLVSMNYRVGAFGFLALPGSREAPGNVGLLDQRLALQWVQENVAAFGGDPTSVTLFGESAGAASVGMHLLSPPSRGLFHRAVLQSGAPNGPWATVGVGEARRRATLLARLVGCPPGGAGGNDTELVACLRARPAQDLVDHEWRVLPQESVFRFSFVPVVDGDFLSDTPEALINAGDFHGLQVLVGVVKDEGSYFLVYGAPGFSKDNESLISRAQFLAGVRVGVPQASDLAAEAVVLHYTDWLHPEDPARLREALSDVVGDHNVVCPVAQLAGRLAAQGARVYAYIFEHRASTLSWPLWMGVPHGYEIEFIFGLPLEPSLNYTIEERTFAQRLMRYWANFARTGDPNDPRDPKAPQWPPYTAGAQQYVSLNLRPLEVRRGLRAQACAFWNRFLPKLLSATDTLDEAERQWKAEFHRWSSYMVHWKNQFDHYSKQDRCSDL
pIC50: −log10 of the molar value.
Binary classification by pIC50, with 7 as an inclusive lower bound for Yes; all other cases are No.

Past entries and their recorded results:
INSERT INTO results (structure_notation, class) VALUES
  ('Cl.O=C(NCCCCCCCCCCNc1c2c(nc3ccccc13)CCCC2)c1cc(=O)c2cc(O)c(O)cc2o1', 'No'),
  ('COc1ccc2oc(C(=O)NCCCCCCCCCCNc3c4c(nc5ccccc35)CCCC4)cc(=O)c2c1.Cl', 'Yes'),
  ('COc1ccc2oc(C(=O)NCCCCCCCCCCNc3c4c(nc5cc(Cl)cc(Cl)c35)CCCC4)cc(=O)c2c1', 'No');

# input for lookup
Textbook exercise: given the entry O=C(NCCCCCCCCCCNc1c2c(nc3cc(Cl)cc(Cl)c13)CCCC2)c1cc(=O)c2cc(O)ccc2o1 , state whether its pIC50 is greater than or equal to 7.
No

###

Overview of reported pIC50 across a group of compounds:
# System name: Acetylcholinesterase (Bos taurus, UniProt P23795)
# Sequence (P23795 whole entry): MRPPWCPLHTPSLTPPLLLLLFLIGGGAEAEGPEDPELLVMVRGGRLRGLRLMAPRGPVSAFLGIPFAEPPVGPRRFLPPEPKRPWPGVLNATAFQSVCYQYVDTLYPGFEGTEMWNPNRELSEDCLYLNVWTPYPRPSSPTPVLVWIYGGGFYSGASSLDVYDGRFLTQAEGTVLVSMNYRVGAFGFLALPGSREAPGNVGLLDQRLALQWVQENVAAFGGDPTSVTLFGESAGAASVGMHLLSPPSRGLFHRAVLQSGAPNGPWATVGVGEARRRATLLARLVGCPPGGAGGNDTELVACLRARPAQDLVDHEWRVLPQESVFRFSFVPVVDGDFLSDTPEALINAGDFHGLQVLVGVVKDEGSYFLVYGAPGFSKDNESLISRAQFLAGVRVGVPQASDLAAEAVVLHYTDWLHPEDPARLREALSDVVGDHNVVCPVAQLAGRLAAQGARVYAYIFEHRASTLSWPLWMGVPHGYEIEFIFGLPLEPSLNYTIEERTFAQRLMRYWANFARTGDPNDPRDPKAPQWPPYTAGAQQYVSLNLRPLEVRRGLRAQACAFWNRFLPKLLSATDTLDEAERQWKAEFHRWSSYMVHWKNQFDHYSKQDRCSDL
Note on pIC50: it is the negative log10 of concentration, concentration in mol/L.

Reference set, count: 3
INSERT INTO measurements (structure_notation, reported_measurement) VALUES
  ('Cl.O=C(NCCCCCCCCCCNc1c2c(nc3ccccc13)CCCC2)c1cc(=O)c2cc(O)ccc2o1', 7.12),
  ('COc1cc(OC)c2c(=O)cc(C(=O)NCCCCCCCCCCNc3c4c(nc5cc(Cl)cc(Cl)c35)CCCC4)oc2c1', 6.82),
  ('O=C(NCCCCCCCNc1c2c(nc3ccccc13)CCCC2)c1cc(=O)c2ccccc2o1', 7.00);

Continue with the compound presented below.
Give pIC50 for the following compound: Cl.O=C(NCCCCCCCCCCNc1c2c(nc3ccccc13)CCCC2)c1cc(=O)c2ccccc2o1
7.12

###

Observed IC50, system Acetylcholinesterase (Homo sapiens).
Form entry: value (nM) — number only.

// known answers, use as guide
INSERT INTO assay_data (structure_notation, reported_measurement) VALUES
  ('Cl.O=C(NCCCCCCCCCCNc1c2c(nc3cc(Cl)ccc13)CCCC2)c1cc(=O)c2ccccc2o1', 0.3),
  ('COc1cc(O)c2c(=O)cc(C(=O)NCCCCCCCCCCNc3c4c(nc5cc(Cl)ccc35)CCCC4)oc2c1.Cl', 0.035),
  ('COc1cc(O)c2c(=O)cc(C(=O)NCCCCCCCCCCNc3c4c(nc5ccccc35)CCCC4)oc2c1.Cl', 1);

With those in mind, consider the next molecule.
Fill in reported IC50 for this entry: COc1ccc2oc(C(=O)NCCCCCCCCCCNc3c4c(nc5ccccc35)CCCC4)cc(=O)c2c1.Cl
0.775

###

Listing of entries alongside the reported Kic.
# System name: Beta-secretase 1 (Homo sapiens)
# Sequence (P56817 whole entry): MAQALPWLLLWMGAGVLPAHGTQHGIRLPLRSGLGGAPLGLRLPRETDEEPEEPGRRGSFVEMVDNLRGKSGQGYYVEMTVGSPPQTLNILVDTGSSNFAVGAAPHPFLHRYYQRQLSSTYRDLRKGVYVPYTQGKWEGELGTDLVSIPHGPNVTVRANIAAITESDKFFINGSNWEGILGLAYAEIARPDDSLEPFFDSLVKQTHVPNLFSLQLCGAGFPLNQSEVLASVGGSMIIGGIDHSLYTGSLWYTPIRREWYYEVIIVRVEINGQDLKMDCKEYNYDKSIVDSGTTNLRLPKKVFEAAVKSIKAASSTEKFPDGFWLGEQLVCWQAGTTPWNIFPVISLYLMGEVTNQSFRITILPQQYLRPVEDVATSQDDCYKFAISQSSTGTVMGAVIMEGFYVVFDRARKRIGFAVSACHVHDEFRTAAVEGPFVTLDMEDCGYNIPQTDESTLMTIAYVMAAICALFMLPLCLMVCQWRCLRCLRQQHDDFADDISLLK
# Experiment: Competitive inhibition of human recombinant […] using panvera peptide as substrate preincubated for 60 mins before substrate addition by FRET assay
Just the number please, in µM, no unit attached.

// worked examples, Kic included
INSERT INTO measurements (structure_notation, system_name, quantity_kind, reported_measurement) VALUES
  ('COc1cc(OC)c2c(=O)cc(C(=O)NCCCCCCCCCCNc3c4c(nc5ccccc35)CCCC4)oc2c1.Cl', 'Beta-secretase 1 (Homo sapiens)', 'Kic', 0.62),
  ('COc1cc(O)c2c(=O)cc(C(=O)NCCCCCCCCCCNc3c4c(nc5ccccc35)CCCC4)oc2c1.Cl', 'Beta-secretase 1 (Homo sapiens)', 'Kic', 0.85),
  ('COc1cc2oc(C(=O)NCCCCCCCCCCNc3c4c(nc5ccccc35)CCCC4)cc(=O)c2cc1OC.Cl', 'Beta-secretase 1 (Homo sapiens)', 'Kic', 0.88);

State, for Beta-secretase 1 (Homo sapiens), measured Kic of the molecule listed here: Cl.O=C(NCCCCCCCCCCNc1c2c(nc3cc(Cl)ccc13)CCCC2)c1cc(=O)c2cc(O)c(O)cc2o1
3.99
